Biological target: TLR2/TLR6 (Mus musculus) (UniProt Q9QUN7+Q9EPW9)
Assay: Inhibition of TLR2/6 in BALB/c mouse BMDM assessed as downregulation of BLP-stimulated IL-6 level at 5 ug/ml preincubated for 18 hrs followed by BLP challenge measured after 24 hrs by ELISA relative to control
Assay type: protein-complex assay
Active and inactive are the calls of the source. The rule behind the calls is not given here.
Permitted responses: y (active), n (inactive)

1) CC[C@@H](C)NCCS(=O)(=O)c1ccccc1 ... n
2) CN(C)CCCS(=O)(=O)Cc1ccc(Br)cc1 ... n
3) CN(C)CCNS(=O)(=O)Cc1ccc([N+](=O)[O-])cc1 ... y

Identify the outcome logged in this assay for the compound shown: "CN(C)CCCNC(=O)Cc1ccccc1" n
